- MEASUREMENT TARGET: CCAAT/enhancer-binding protein beta (Homo sapiens) (UniProt P17676)
- Sequence (P17676 whole entry, looked up): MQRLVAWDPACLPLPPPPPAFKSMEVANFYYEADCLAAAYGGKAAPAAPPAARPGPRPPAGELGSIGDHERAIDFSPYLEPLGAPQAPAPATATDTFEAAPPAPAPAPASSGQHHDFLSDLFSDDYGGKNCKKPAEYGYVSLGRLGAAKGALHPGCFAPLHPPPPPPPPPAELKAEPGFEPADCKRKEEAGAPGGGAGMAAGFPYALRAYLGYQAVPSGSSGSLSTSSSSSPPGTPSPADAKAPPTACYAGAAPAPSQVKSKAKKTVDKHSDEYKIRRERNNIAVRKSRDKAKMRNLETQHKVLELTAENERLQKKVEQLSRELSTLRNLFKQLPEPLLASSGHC
- ASSAY INFO: ATG_C_EBP_CIS: Attagene CIS-FACTORIAL HepG2 Assay for human CCAAT/Enhancer Binding Protein (C/EBP) beta (AID 2282927)
- MEASUREMENT CONTEXT: HepG2 Attagene cis-factorial transcription factor reporter; actives raise or lower the signal
The source made the active and inactive calls. The calls were made as follows: active = hit-call score of the fitted dose curve at least 0.9, where 1 is the maximum; inactive = score below 0.9.
Reply using exactly one outcome from label 1 (active), label 0 (inactive)

Challenge: Assay result, entry "CCc1ccccc1O" — outcome?
Response given: label 0

Challenge: Assay result, entry "Cc1cc(Cc2cc(C)cc(C(C)(C)C)c2O)c(O)c(C(C)(C)C)c1" — outcome?
Response given: label 1

Challenge: Assay result, entry "CC=O" — outcome?
Response given: label 0

Challenge: Assay result, entry "C=CC(F)(F)C(F)(F)C(F)(F)C(F)(F)F" — outcome?
Response given: label 0

Challenge: Assay result, entry "C=CC(=O)OCCC(F)(F)C(F)(F)C(F)(F)C(F)(F)C(F)(F)C(F)(F)F" — outcome?
Response given: label 0

Challenge: Assay result, entry "O=C(C=C(O)C(F)(F)F)C(F)(F)F" — outcome?
Response given: label 0

----------
- ASSAY INFO: ATG_SREBP_CIS: Attagene CIS-FACTORIAL HepG2 Assay for human Sterol Regulatory Element Binding (SREBP) (AID 2282962)
- MEASUREMENT CONTEXT: HepG2 Attagene cis-factorial SREBP reporter, mRNA; actives raise or lower the signal
Calls of active or inactive are those of the source. The calls were made as follows: active = hit-call score of the fitted dose curve at least 0.9, where 1 is the maximum; inactive = score below 0.9.
Reply using exactly one outcome from YES (active), NO (inactive)

Challenge: Assay result, entry "CC(C)(O)C(=O)c1ccccc1" — outcome?
Response given: NO

Challenge: Assay result, entry "Cc1ccc(N=Nc2c(O)ccc3ccccc23)c(C)c1" — outcome?
Response given: NO

Challenge: Assay result, entry "Oc1cc2ccccc2cc1O" — outcome?
Response given: NO

Challenge: Assay result, entry "COC(=O)C(F)(F)C(F)(F)C(F)(F)F" — outcome?
Response given: NO

Challenge: Assay result, entry "OCCN1CN(CCO)CN(CCO)C1" — outcome?
Response given: NO

Challenge: Assay result, entry CCCCCCCCCC=CCC1CC(=O)OC1=O (configuration not stated) — outcome?
Response given: YES

Challenge: Assay result, entry "CCCCCCCC(OC)OC" — outcome?
Response given: NO

----------
- ASSAY INFO: Tanguay_ZF_120hpf_YSE_legacy: (Legacy) Oregon State University Tanguay Lab 120 Hour Post-fertilization zebrafish Assay for Yolk Sac Edema (AID 2283634);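 as to AC50: actives raise the incidence of yolk sac edema above the DMSO baseline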
Records with an inconclusive call do not appear. Activity calls are given as the source filed them. Rule for the calls: active = hit-call score of the fitted dose curve at least 0.9, where 1 is the maximum; inconclusive = response in the unintended direction; inactive = score below 0.9.
EXPERIMENTAL ENDPOINT: AC50

Challenge: Indicate the recorded AC50 value for this compound: "CCCCCCCCCCCCOS(=O)(=O)O"
Response given: inactive

Challenge: Indicate the recorded AC50 value for this compound: CCCCC(CC)C(=O)O (stereo not drawn)
Response given: inactive

Challenge: Indicate the recorded AC50 value for this compound: "CCCCC=O"
Response given: 45.3 µM (active)

----------
- Read-out: urokinase plasminogen activator (uPA), PLAU (gene 5328)
- ASSAY INFO: BSK_BE3C_uPA: BioMAP Diversity Plus: BE3C Assay for urokinase plasminogen activator (uPA) Biomarker Activity (AID 2283038);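 as to outcome: uPA protein level quantified by ELISA in cell cultures; uPA read one day after compound addition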
- MEASUREMENT CONTEXT: primary human bronchial epithelial cells; actives raise or lower the signal
The source made the active and inactive calls. Rule for the calls: active = hit-call score of the fitted dose curve at least 0.9, where 1 is the maximum; inactive = score below 0.9.
Reply using exactly one outcome from active, inactive

Challenge: Assay result, entry "CC(C)(C)c1ccc(O)c(O)c1" — outcome?
Response given: inactive

Challenge: Assay result, entry "O=C1NS(=O)(=O)c2ccccc21" — outcome?
Response given: inactive

Challenge: Assay result, entry "OCC(F)(F)C(F)(F)C(F)(F)C(F)(F)C(F)(F)C(F)(F)C(F)(F)C(F)(F)C(F)(F)C(F)(F)C(F)(F)F" — outcome?
Response given: inactive

Challenge: Assay result, entry "CS(=O)(=O)c1ccc([C@@H](CC2CCCC2)C(=O)Nc2cnccn2)cc1Cl" — outcome?
Response given: inactive

Challenge: Assay result, entry "O=C(NO)c1ccccc1" — outcome?
Response given: inactive

Challenge: Assay result, entry "CN(CCO)S(=O)(=O)C(F)(F)C(F)(F)C(F)(F)C(F)(F)C(F)(F)C(F)(F)C(F)(F)C(F)(F)F" — outcome?
Response given: inactive

Challenge: Assay result, entry "CCCCc1oc2ccccc2c1C(=O)c1cc(I)c(OCCN(CC)CC)c(I)c1" — outcome?
Response given: active

Challenge: Assay result, entry CCC(C)c1ccccc1O (configuration not stated) — outcome?
Response given: inactive

Challenge: Assay result, entry "OCCN1CN(CCO)CN(CCO)C1" — outcome?
Response given: inactive

Challenge: Assay result, entry "O=S(=O)(O)C(F)(F)C(F)(F)C(F)(F)C(F)(F)C(F)(F)C(F)(F)C(F)(F)C(F)(F)C(F)(F)C(F)(F)F" — outcome?
Response given: inactive

Challenge: Assay result, entry "O=C(NCc1ncc(C(F)(F)F)cc1Cl)c1c(Cl)cccc1Cl" — outcome?
Response given: inactive

Challenge: Assay result, entry "CN(Cc1cnc2nc(N)nc(N)c2n1)c1ccc(C(=O)N[C@@H](CCC(=O)O)C(=O)O)cc1" — outcome?
Response given: inactive

Challenge: Assay result, entry "O=P(O)(O)CCC(F)(F)C(F)(F)C(F)(F)C(F)(F)C(F)(F)C(F)(F)C(F)(F)C(F)(F)F" — outcome?
Response given: inactive

Challenge: Assay result, entry "CC(=O)Nc1ccc(O)cc1" — outcome?
Response given: inactive

Challenge: Assay result, entry "CC[N+](CC)(CC)Cc1ccccc1" — outcome?
Response given: inactive

Challenge: Assay result, entry "O=C(CCCN1CCC(O)(c2ccc(Cl)cc2)CC1)c1ccc(F)cc1" — outcome?
Response given: inactive

Challenge: Assay result, entry "O=C(c1ccccc1)c1ccccc1" — outcome?
Response given: inactive

Challenge: Assay result, entry "C[C@]12CC[C@@H]3c4ccc(O)cc4CC[C@H]3[C@@H]1C[C@@H](O)[C@@H]2O" — outcome?
Response given: inactive

Challenge: Assay result, entry "Cc1ccc(C(=O)c2ccccc2)cc1" — outcome?
Response given: inactive

Challenge: Assay result, entry "CC1=NN(c2ccccc2)C(=O)C1" — outcome?
Response given: inactive

Challenge: Assay result, entry "OCC(CO)(CBr)CBr" — outcome?
Response given: inactive

Challenge: Assay result, entry "Oc1ccc(Cc2ccccc2O)cc1" — outcome?
Response given: inactive

----------
- MEASUREMENT TARGET: Retinoic acid receptor alpha (Homo sapiens) (UniProt P10276)
- Sequence (P10276 whole entry, looked up): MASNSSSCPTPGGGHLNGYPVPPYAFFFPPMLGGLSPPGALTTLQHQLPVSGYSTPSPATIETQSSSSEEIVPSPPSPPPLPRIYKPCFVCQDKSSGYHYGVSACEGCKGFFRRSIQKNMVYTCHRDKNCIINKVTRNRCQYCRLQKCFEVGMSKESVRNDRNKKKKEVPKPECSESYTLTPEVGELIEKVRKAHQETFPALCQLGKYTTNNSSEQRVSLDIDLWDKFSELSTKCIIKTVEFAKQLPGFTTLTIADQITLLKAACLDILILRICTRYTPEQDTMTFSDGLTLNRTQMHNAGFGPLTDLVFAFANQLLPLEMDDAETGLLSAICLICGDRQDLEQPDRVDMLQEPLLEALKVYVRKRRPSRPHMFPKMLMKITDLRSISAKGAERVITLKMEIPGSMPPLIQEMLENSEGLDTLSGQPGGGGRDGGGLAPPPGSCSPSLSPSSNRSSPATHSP
- ASSAY INFO: ATG_DR5_RAR_CIS: Attagene CIS-FACTORIAL HepG2 Assay for human Retinoic Acid Receptor Alpha (RARE), DR5 submotif (AID 2282934)
- MEASUREMENT CONTEXT: HepG2 Attagene cis-factorial RARE DR5 reporter, mRNA; actives raise or lower the signal
Activity calls are given as the source filed them. How the source made its calls: active means hit-call score of the fitted dose curve at least 0.9, where 1 is the maximum; inactive means score below 0.9.
Reply using exactly one outcome from active, inactive

Challenge: Assay result, entry "C=COC(=O)C(C)(C)CCCCCC" — outcome?
Response given: inactive

Challenge: Assay result, entry "C[C@]12CC[C@@H]3c4ccc(O)cc4CC[C@H]3[C@@H]1CC[C@@H]2OC(=O)CCC1CCCC1" — outcome?
Response given: inactive

Challenge: Assay result, entry "FC(F)(F)C(F)(F)C(F)(F)Br" — outcome?
Response given: inactive

Challenge: Assay result, entry "C=CC(=O)OCCC(F)(F)C(F)(F)C(F)(F)C(F)(F)C(F)(F)C(F)(F)C(F)(F)C(F)(F)F" — outcome?
Response given: active

Challenge: Assay result, entry "OCCN1CN(CCO)CN(CCO)C1" — outcome?
Response given: active

Challenge: Assay result, entry "CCCCN(C)C" — outcome?
Response given: inactive

Challenge: Assay result, entry "CC1=NN(c2ccccc2)C(=O)C1" — outcome?
Response given: inactive

----------
- MEASUREMENT TARGET: Transcription factor E2F1 (Homo sapiens) (UniProt Q01094)
- Sequence (Q01094 whole entry, looked up): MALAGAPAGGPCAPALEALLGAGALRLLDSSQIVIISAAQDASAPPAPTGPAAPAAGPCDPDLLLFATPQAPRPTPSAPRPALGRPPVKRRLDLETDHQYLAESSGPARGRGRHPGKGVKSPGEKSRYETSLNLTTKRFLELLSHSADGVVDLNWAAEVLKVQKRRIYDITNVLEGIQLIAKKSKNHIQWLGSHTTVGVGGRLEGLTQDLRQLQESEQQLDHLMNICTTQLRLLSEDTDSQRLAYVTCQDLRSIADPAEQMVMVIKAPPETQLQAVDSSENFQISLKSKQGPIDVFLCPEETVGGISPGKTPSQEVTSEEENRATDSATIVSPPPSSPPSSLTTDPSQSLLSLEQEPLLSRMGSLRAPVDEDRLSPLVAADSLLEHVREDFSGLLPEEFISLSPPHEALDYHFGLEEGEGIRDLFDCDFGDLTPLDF
- ASSAY INFO: ATG_E2F_CIS: Attagene CIS-FACTORIAL HepG2 Assay for human E2F Transcription Factor 1 (AID 2282935)
- MEASUREMENT CONTEXT: HepG2 Attagene cis-reporter, E2F reporter RNA transcripts; actives raise or lower the signal
Calls of active or inactive are those of the source. The calls were made as follows: active = hit-call score of the fitted dose curve at least 0.9, where 1 is the maximum; inactive = score below 0.9.
Reply using exactly one outcome from label 1 (active), label 0 (inactive)

Challenge: Assay result, entry CCCCCCCCC1CCC(=O)O1 (stereo not given) — outcome?
Response given: label 0

Challenge: Assay result, entry "Oc1c(Cl)cc(Cl)cc1Sc1cc(Cl)cc(Cl)c1O" — outcome?
Response given: label 0

Challenge: Assay result, entry CC1CCC(CO)CC1 (stereo not given) — outcome?
Response given: label 0

Challenge: Assay result, entry "CCCCCCCCCCCCCCCCCC[N+](C)(C)Cc1ccccc1" — outcome?
Response given: label 1

Challenge: Assay result, entry "CCN(CCC#N)c1ccccc1" — outcome?
Response given: label 0

Challenge: Assay result, entry "CCCCCCCCCCCC[N+](C)(C)Cc1ccccc1" — outcome?
Response given: label 0

Challenge: Assay result, entry "CCCCCCC(C)(C)C(=O)O" — outcome?
Response given: label 0

Challenge: Assay result, entry "C[C@]12CC[C@@H]3c4ccc(O)cc4CC[C@H]3[C@@H]1C[C@@H](O)[C@@H]2O" — outcome?
Response given: label 0

Challenge: Assay result, entry "c1cnc2c(c1)ccc1cccnc12" — outcome?
Response given: label 0

Challenge: Assay result, entry "NNc1nc(-c2ccc([N+](=O)[O-])cc2)cs1" — outcome?
Response given: label 0

Challenge: Assay result, entry "FC(F)(F)N1C(F)(F)C(F)(F)OC(F)(F)C1(F)F" — outcome?
Response given: label 0

Challenge: Assay result, entry "CCCCCCCCCCCCCCC" — outcome?
Response given: label 0

Challenge: Assay result, entry "O=C(O)CN(CCCN(CC(=O)O)CC(=O)O)CC(=O)O" — outcome?
Response given: label 0

Challenge: Assay result, entry "O=C1c2ccc(O)c(O)c2C(=O)c2c(O)ccc(O)c21" — outcome?
Response given: label 0

Challenge: Assay result, entry "O=C(Nc1cccc([N+](=O)[O-])c1)c1cc2ccccc2cc1O" — outcome?
Response given: label 1

Challenge: Assay result, entry "O=C(C=C(O)C(F)(F)F)C(F)(F)F" — outcome?
Response given: label 0

Challenge: Assay result, entry "CC(C)[C@@H]1CC[C@@H](C)C[C@H]1O" — outcome?
Response given: label 0

Challenge: Assay result, entry "O=CC(F)(F)C(F)(F)C(F)(F)C(F)F" — outcome?
Response given: label 0

Challenge: Assay result, entry "Cc1ccc2ccc3ccc(C)cc3c2c1" — outcome?
Response given: label 0

Challenge: Assay result, entry COC(O)c1ccccc1 (stereo not given) — outcome?
Response given: label 0

Challenge: Assay result, entry "CC1=NN(c2ccccc2)C(=O)C1" — outcome?
Response given: label 0

Challenge: Assay result, entry "CCCCCCCC(OC)OC" — outcome?
Response given: label 0

Challenge: Assay result, entry "COc1ccccc1NC(=O)c1cc2ccccc2cc1O" — outcome?
Response given: label 0

Challenge: Assay result, entry CCCCCC(C)OC(=O)COc1ccc(Cl)c2cccnc12 (stereo not given) — outcome?
Response given: label 0

Challenge: Assay result, entry "CC(C)C=O" — outcome?
Response given: label 0

Challenge: Assay result, entry CCO[Si](CCC1CCC2OC2C1)(OCC)OCC (stereo not given) — outcome?
Response given: label 0

Challenge: Assay result, entry "Cc1cccc2c1ccc1ccccc12" — outcome?
Response given: label 0

Challenge: Assay result, entry "COCN(COC)c1nc(N(COC)COC)nc(N(COC)COC)n1" — outcome?
Response given: label 0

Challenge: Assay result, entry OCC1CCC(CO)CC1 (stereo not given) — outcome?
Response given: label 0

Challenge: Assay result, entry "CCCCCCCCCCCCOC(=O)c1cc(O)c(O)c(O)c1" — outcome?
Response given: label 0
